# assayed target: smHDAC8 (Schistosoma mansoni, UniProt A5H660)
# Construct: made in house; host or cells: E. coli
# Sequence (A5H660 1-440): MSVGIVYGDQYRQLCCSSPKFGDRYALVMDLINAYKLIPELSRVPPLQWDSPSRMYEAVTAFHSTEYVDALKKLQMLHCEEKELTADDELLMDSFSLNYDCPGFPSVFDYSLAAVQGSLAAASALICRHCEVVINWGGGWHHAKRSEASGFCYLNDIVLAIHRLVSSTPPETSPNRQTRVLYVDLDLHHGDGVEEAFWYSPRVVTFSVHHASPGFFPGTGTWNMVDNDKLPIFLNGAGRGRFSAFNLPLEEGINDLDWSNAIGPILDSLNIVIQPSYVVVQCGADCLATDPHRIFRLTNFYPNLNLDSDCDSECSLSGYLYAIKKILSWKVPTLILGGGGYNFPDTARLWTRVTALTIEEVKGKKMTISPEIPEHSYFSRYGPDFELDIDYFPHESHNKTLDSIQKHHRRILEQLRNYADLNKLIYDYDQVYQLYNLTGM
# test protocol: biochemical
# Assay type: biochemical
pIC50: −log10 of the molar value.
result type: pIC50

P. O=C(NO)c1cn(Cc2ccc(C(F)(F)F)cc2)nn1
Q. O=C(NO)c1cn(CCc2ccccc2)nn1
[ask] Determine, for P and Q , which has the greater value of pIC50. Use the label to indicate which entry you chose.
[reply] P
(P: 5.29, Q: 4.97)

1. O=C(NO)c1cn(-c2ccccc2)nn1
2. O=C(NO)c1cn(CCCc2ccccc2)nn1
[ask] Which shows the larger pIC50 value: 1 or 2 ? Answer by stating the label of the chosen item.
[reply] 1
(1: 5.35, 2: 5.06)
